Target: Adenosine receptor A1 (Homo sapiens) (UniProt P30542)
Sequence (whole entry): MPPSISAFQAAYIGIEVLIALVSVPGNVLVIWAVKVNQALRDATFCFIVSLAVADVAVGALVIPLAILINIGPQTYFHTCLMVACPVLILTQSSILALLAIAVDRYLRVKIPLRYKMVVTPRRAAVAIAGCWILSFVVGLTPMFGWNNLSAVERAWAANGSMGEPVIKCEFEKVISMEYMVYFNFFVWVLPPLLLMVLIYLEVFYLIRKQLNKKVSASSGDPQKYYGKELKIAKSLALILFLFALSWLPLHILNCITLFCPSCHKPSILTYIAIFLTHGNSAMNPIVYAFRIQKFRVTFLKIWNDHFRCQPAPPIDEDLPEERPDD
Assay: Positive allosteric enhancement of human cloned adenosine A1 receptor expressed in CHO cells assessed as inhibition of forskolin-induced cAMP accumulation at 10 uM using [3H]-cAMP by scintillation counting relative to control
Format: functional, cell-based
measurement_kind: inhibition (%)

# count of solved cases: 3
1. COc1ccccc1Cc1c(-c2ccccc2)sc(N)c1C(=O)c1ccc(Cl)cc1
55
2. Nc1sc(Cc2ccc(OC(F)(F)F)cc2)c(-c2ccccc2)c1C(=O)c1ccc(Cl)cc1
24
3. Nc1sc(-c2ccc(F)cc2)c(Cc2ccc(F)cc2)c1C(=O)c1ccc(Cl)cc1
45

(I) CSc1ccc(Cc2c(-c3ccccc3)sc(N)c2C(=O)c2ccc(Cl)cc2)cc1
(II) CC(C)Oc1ccc(Cc2sc(N)c(C(=O)c3ccc(Cl)cc3)c2-c2ccccc2)cc1
Q: API: POST /compare with I and II ; response names the item with higher inhibition. Select an item and report its label.
A: I

(I) CCOc1ccc(Cc2c(-c3ccccc3)sc(N)c2C(=O)c2ccc(Cl)cc2)cc1
(II) Nc1sc(Cc2ccc(C(F)(F)F)cc2)c(-c2ccccc2)c1C(=O)c1ccc(Cl)cc1
Q: Endpoint returns the identifier whose inhibition is numerically larger, either I or II . Response format: the label of the selected entry.
A: I

* * *

Target: Adenosine receptor A1 (Homo sapiens)
Assay: Binding affinity to human adenosine A1 receptor expressed in CHO cells assessed as fold Bmax shift of [3H]-CCPA at 10 uM after 90 mins by [3H]-CCPA binding assay relative to control
Format: cell-based
measurement_kind: fold change (FC)

Example results:
1) Nc1sc(-c2ccc(F)cc2)c(Cc2ccccc2)c1C(=O)c1ccc(Cl)cc1
4.9
2) COc1ccc(-c2sc(N)c(C(=O)c3ccc(Cl)cc3)c2Cc2ccc(Cl)cc2)cc1
5
3) Nc1sc(-c2ccc(Cl)cc2)c(Cc2ccc(Cl)cc2)c1C(=O)c1ccc(Cl)cc1
11

(1) COc1ccc(Cc2sc(N)c(C(=O)c3ccc(Cl)cc3)c2-c2ccccc2)cc1
(2) CSc1ccc(Cc2c(-c3ccccc3)sc(N)c2C(=O)c2ccc(Cl)cc2)cc1
Q: Compare the recorded fold change (FC) of 1 and 2 ; state which is larger. // output: label of the selected item
A: 2

(P) COc1ccc(Cc2c(-c3ccc(OC)cc3)sc(N)c2C(=O)c2ccc(Cl)cc2)cc1
(Q) Nc1sc(-c2ccc(Cl)cc2)c(Cc2ccc(F)cc2)c1C(=O)c1ccc(Cl)cc1
Q: Which numeric fold change (FC) is bigger, that of P or that of Q ? Answer by quoting the chosen item's label.
A: Q
(Q: 9.1, P: 5.1)

(A) CSc1ccc(Cc2c(-c3ccc(F)cc3)sc(N)c2C(=O)c2ccc(Cl)cc2)cc1
(B) Cc1ccc(Cc2c(-c3ccc(Cl)cc3)sc(N)c2C(=O)c2ccc(Cl)cc2)cc1
Q: Pick one, A or B : lowest reported fold change (FC). Identify your pick by its label.
A: A
(A: 5.3, B: 8.6)
